molecular target: T1, human PD-L1 (construct not stated) (human, UniProt Q9NZQ7 19-239, limits assumed); assay: BLI Octet Red 96, affinity ranking
T1 construct: also called B7-H1 (PD-L1); PD-L1 protein
T1 sequence (Q9NZQ7 19-239 limits assumed): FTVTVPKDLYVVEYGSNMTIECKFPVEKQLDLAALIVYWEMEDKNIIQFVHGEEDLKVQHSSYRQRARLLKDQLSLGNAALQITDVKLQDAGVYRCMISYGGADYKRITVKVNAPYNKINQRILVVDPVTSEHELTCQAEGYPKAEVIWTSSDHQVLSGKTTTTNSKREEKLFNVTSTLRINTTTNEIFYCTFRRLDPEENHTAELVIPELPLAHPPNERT
pKd by entry:
Notebook: values listed as pKd are -log10 of the concentration (mol/L).

Example cases with answers are listed next.
[[record]]
binder = "Hu1210-19 (antibody, V domains shown, Hu1210 VH.3a x Vk.1a; human gamma 1 / kappa constant domains) VH: EVQLLESGGGLVQPGGSLRLSCAASGFTFSSYDMSWVRQAPGKSLEWVATISDGGGYIYYSDSVKGRFTISRDNSKNTLYLQMNSLRAEDTAVYICAREFGKRYALDYWGQGTTVTVSS VL: DIQMTQSPSSLSASVGDRVTITCKASQDVTPAVAWYQQKPGKSPKLLIYSTSSRYTGVPSRFSGSGSGTDFTFTISSLQPEDIATYYCQQHYTTPLTFGQGTKLEIK"
measurement_kind = "pKd"
measured_result = 8.60

[[record]]
binder = "Hu1210-2 (antibody, V domains shown, Hu1210 VH.1a x Vk.1; human gamma 1 / kappa constant domains) VH: EVQLVESGGGLVKPGGSLRLSCAASGFTFSSYDMSWVRQAPGKGLEWVATISDGGGYIYYSDSVKGRFTISRDNAKNSLYLQMNSLRAEDTAVYYCAREFGKRYALDYWGQGTTVTVSS VL: DIQMTQSPSSLSASVGDRVTITCKASQDVTPAVAWYQQKPGKAPKLLIYSTSSRYTGVPSRFSGSGSGTDFTFTISSLQPEDIATYYCQQHYTTPLTFGQGTKLEIK"
measurement_kind = "pKd"
measured_result = 8.49

[[record]]
binder = "Hu1210-8 (antibody, V domains shown, Hu1210 VH.1a x Vk.1a; human gamma 1 / kappa constant domains) VH: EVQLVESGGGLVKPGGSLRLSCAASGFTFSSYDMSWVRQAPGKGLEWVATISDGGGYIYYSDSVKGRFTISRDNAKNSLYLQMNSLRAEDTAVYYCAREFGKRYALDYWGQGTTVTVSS VL: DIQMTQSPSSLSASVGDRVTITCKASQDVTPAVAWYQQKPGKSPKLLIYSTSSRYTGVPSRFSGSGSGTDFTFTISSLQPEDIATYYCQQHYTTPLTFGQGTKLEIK"
measurement_kind = "pKd"
measured_result = 8.79

[[record]]
binder = "Hu1210-5 (antibody, V domains shown, Hu1210 VH.2a x Vk.1; human gamma 1 / kappa constant domains) VH: EVQLVESGGGLVKPGGSLRLSCAASGFTFSSYDMSWIRQAPGKGLEWVATISDGGGYIYYSDSVKGRFTISRDNAKNSLYLQMNSLRAEDTAVYYCAREFGKRYALDYWGQGTTVTVSS VL: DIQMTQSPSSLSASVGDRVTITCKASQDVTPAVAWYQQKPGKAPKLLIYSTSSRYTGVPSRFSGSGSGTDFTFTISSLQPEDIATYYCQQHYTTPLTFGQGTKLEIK"
measurement_kind = "pKd"
measured_result = 8.32

[[record]]
binder = "Hu1210-4 (antibody, V domains shown, Hu1210 VH.2 x Vk.1; human gamma 1 / kappa constant domains) VH: EVQLVESGGGLVKPGGSLRLSCAASGFTFSSYDMSWIRQAPGKGLEWVSTISDGGGYIYYSDSVKGRFTISRDNAKNSLYLQMNSLRAEDTAVYYCAREFGKRYALDYWGQGTTVTVSS VL: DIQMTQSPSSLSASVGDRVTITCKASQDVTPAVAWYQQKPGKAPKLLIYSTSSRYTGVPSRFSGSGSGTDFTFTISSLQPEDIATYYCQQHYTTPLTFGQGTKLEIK"
measurement_kind = "pKd"
measured_result = 8.11


INPUT: Would you mind telling me what pKd value was observed for Hu1210-16 (antibody, V domains shown, Hu1210 VH.4a x Vk.1; human gamma 1 / kappa constant domains) VH: EVQLVESGGGLVQPGGSLRLSCAASGFTFSSYDMSWVRQAPGKGLEWVATISDGGGYIYYSDSVKGRFTISRDNAKNSLYLQMNSLRDEDTAVYYCAREFGKRYALDYWGQGTTVTVSS VL: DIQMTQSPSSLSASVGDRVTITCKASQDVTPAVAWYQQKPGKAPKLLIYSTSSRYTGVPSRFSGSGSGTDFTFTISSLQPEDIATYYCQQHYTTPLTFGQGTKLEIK ?
OUTPUT: 8.50

INPUT: Now consider Hu1210-15 (antibody, V domains shown, Hu1210 VH.4 x Vk.1; human gamma 1 / kappa constant domains) VH: EVQLVESGGGLVQPGGSLRLSCAASGFTFSSYDMSWVRQAPGKGLEWVSTISDGGGYIYYSDSVKGRFTISRDNAKNSLYLQMNSLRDEDTAVYYCAREFGKRYALDYWGQGTTVTVSS VL: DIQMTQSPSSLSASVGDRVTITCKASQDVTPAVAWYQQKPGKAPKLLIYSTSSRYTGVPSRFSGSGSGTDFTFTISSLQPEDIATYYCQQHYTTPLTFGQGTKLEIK and answer again.
OUTPUT: 8.35

INPUT: Now consider Hu1210-1 (antibody, V domains shown, Hu1210 VH.1 x Vk.1) VH: EVQLVESGGGLVKPGGSLRLSCAASGFTFSSYDMSWVRQAPGKGLEWVSTISDGGGYIYYSDSVKGRFTISRDNAKNSLYLQMNSLRAEDTAVYYCAREFGKRYALDYWGQGTTVTVSS VL: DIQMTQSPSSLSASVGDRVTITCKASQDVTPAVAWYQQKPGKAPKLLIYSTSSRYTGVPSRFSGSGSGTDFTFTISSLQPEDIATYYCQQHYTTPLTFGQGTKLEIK and answer again.
OUTPUT: 8.37

INPUT: Now consider Hu1210-18 (antibody, V domains shown, Hu1210 VH.3 x Vk.1a; human gamma 1 / kappa constant domains) VH: EVQLLESGGGLVQPGGSLRLSCAASGFTFSSYDMSWVRQAPGKGLEWVSTISDGGGYIYYSDSVKGRFTISRDNSKNTLYLQMNSLRAEDTAVYYCAREFGKRYALDYWGQGTTVTVSS VL: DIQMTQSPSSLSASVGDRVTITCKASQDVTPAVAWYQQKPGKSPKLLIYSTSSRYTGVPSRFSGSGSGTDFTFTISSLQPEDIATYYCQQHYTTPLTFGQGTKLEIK and answer again.
OUTPUT: 8.35

INPUT: Now consider Hu1210-20 (antibody, V domains shown, Hu1210 VH.4 x Vk.1a; human gamma 1 / kappa constant domains) VH: EVQLVESGGGLVQPGGSLRLSCAASGFTFSSYDMSWVRQAPGKGLEWVSTISDGGGYIYYSDSVKGRFTISRDNAKNSLYLQMNSLRDEDTAVYYCAREFGKRYALDYWGQGTTVTVSS VL: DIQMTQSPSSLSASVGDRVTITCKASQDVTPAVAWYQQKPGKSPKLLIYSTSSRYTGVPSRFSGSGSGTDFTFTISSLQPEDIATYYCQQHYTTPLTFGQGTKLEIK and answer again.
OUTPUT: 8.35

Attribution: patent US20220363763A1
